tested on: A375 (Amelanotic Melanoma); test: Cell viability analysis, skin cancer A375; assay type: cell-based, human; settings: Homo sapiens, A-375, 72 h, read-out: cell viability (survival rate), A375, drug 10 μM, 72 hours, WST-1, OD450 nm
Structures can show the parent of a compound that is named as a salt.
Measured viability at 10 µM values are reported for all entries that follow.
OUTCOME MEASURE: viability at 10 µM (%)

| COMPOUND | UNIT STRING | VALUE MEASURED |
| --- | --- | --- |
| O=c1ccc2ccccc2o1 [Coumarin] | % | 157 |
| Nc1nc(=O)n([C@@H]2CS[C@H](CO)O2)cc1F [Emtricitabine (Emtriva), Emtricitabine] | % | 84 |
| O=C(O)Cc1ccccc1Nc1c(Cl)cccc1Cl [Diclofenac Potassium] | % | 51.5 |
| CC(C)NCC(O)c1ccc(O)c(O)c1 (centres unmarked) [Isoprenaline hydrochloride] | % | 90 |
| CCN1CCN(C(=O)N[C@@H](C(=O)N[C@@H]2C(=O)N3C(C(=O)O)=C(CSc4nnnn4C)CS[C@H]23)c2ccc(O)cc2)C(=O)C1=O [Cefoperazone (Cefobid), Cefoperazone] | % | 90 |

###

test system: AGS (Gastric Adenocarcinoma); test: Cell viability analysis, gastric cancer AGS; assay type: cell-based, human; settings: Homo sapiens, 72 h, read-out: The results of antibiotic drug inhibiting cancer cell lines (cell viability analysis), AGS; repeated experiment
Where a name gives a salt, the structure may show the parent alone.

| COMPOUND | viability at 10 µM / % |
| --- | --- |
| O=c1[nH]c(=O)n([C@H]2C[C@H](O)[C@@H](CO)O2)cc1C(F)(F)F | 83.2 |
| Clc1ccc(COC(Cn2ccnc2)c2ccc(Cl)cc2Cl)c(Cl)c1 (stereo not drawn) [Miconazole nitrate] | 114 |
| CC(=O)NC[C@H]1CN(c2ccc(N3CCOCC3)c(F)c2)C(=O)O1 [Linezolid (Zyvox), Linezolid] | 104 |
| CCCOc1ccc2nc(NC(=O)OC)[nH]c2c1 | 37.6 |
| CN(C)CCCN1c2ccccc2CCc2ccc(Cl)cc21 [Clomipramine hydrochloride (Anafranil), Clomipramine hydrochloride] | 122 |
| CO[C@H]1/C=C/O[C@@]2(C)Oc3c(C)c(O)c4c(O)c(c5c(nc6cc(C)ccn65)c4c3C2=O)NC(=O)/C(C)=C\C=C\[C@H](C)[C@H](O)[C@@H](C)[C@@H](O)[C@@H](C)[C@H](OC(C)=O)[C@@H]1C | 98.1 |

###

system: MCF7 (Mammary Gland, Adenocarcinoma); test: Cell viability analysis, breast cancer MCF7; type: cell-based, human; conditions: Homo sapiens, MCF7; drug 10 μM, 72 hours, WST-1, OD450 nm; read-out: cell viability (survival rate), MCF7
Where a name gives a salt, the structure may show the parent alone.
OUTCOME MEASURE: viability at 10 µM (%)

| MOLECULE | VALUE MEASURED |
| --- | --- |
| c1ccc2c(c1)sc1ccccc12 | 71.4 |
| CCC[C@H](NC(=O)[C@@H]1[C@H]2CCC[C@H]2CN1C(=O)[C@@H](NC(=O)[C@@H](NC(=O)c1cnccn1)C1CCCCC1)C(C)(C)C)C(=O)C(=O)NC1CC1 | 61.6 |
| CN(C)C(=O)C(CCN1CCC(O)(c2ccc(Cl)cc2)CC1)(c1ccccc1)c1ccccc1 [Loperamide hydrochloride] | 78.9 |
| Clc1ccc(C(Cn2ccnc2)OCc2c(Cl)cccc2Cl)c(Cl)c1 (stereo not shown) [Isoconazole nitrate (Travogen), Isoconazole nitrate] | 95.1 |
| O=C([O-])[C@H](O)[C@@H](O)[C@H](O)[C@H](O)CO.[Na+] [Sodium Gluconate] | 94.7 |
| COc1cccc(N(C)C(=S)Oc2ccc3c(c2)CCCC3)n1 [Liranaftate] | 84.8 |
| CNC[C@H](O)[C@@H](O)[C@H](O)[C@H](O)CO | 97 |
